Tested on: LXFL 529 NSCLC
Assay: NCI tumour cell line growth inhibition, 48 h
Catalogue of compounds with associated TGI

O=[N+]([O-])c1ccc(/C=C/c2ccc(/C=C/c3ccc([N+](=O)[O-])cc3[N+](=O)[O-])cc2)c([N+](=O)[O-])c1	> 100 µM
N#CC1(CCCCl)CCCCC1	> 100 µM
CCOC(=O)C1C(NC(N)=O)N(Cc2ccccc2)C(=O)N1Cc1ccccc1 (stereo not given)	> 100 µM
O=C(CC1(O)C(=O)Nc2c(Cl)cc(Cl)cc21)c1cccc([N+](=O)[O-])c1 (stereo not given)	30 µM

What TGI appears in the records for this compound with LXFL 529 NSCLC? C/C=C1/C=CC2c3[nH]c4ccccc4c3CCN2C1 (stereo not given)
> 400 µM
